Data provenance: patent EP0674651B1

# pIC50 annotations
biological target: Rat Prostatic 5α-reductase; experiment: 5α-reductase in vitro inhibitory activity, rat prostatic; conditions: read-out: IC50 Rat Prostatic; microsomes derived from prostate tissue from the rat
pIC50: −log10 of the molar value.

Below, 5 molecules whose answers are already recorded.
CC(C)(C)C(=O)OCC1CCC2C3CNC4=CC(=O)CCC4(C)C3CCC12C (centres unmarked): > 8.00
C[C@]12CC[C@H]3[C@@H](CNC4=CC(=O)CC[C@@]43C)[C@@H]1CC[C@@H]2C(=O)CC(c1ccccc1)c1ccccc1: < 7.00
C[C@]12CC[C@H]3[C@@H](CNC4=CC(=O)CC[C@@]43C)[C@@H]1CC[C@@H]2C(=O)Nc1cc(C(F)(F)F)ccc1C(F)(F)F: 7.00 to 8.00
CC(C)(C)C1CCC(NC(=O)[C@H]2CC[C@H]3[C@@H]4CNC5=CC(=O)CC[C@]5(C)[C@H]4CC[C@]23C)CC1 (some centres unmarked): < 7.00
C[C@]12CC[C@H]3[C@@H](CNC4=CC(=O)CC[C@@]43C)[C@@H]1CC[C@@H]2C(=O)Nc1ccc2c(c1)OCCO2: 7.00 to 8.00

In: What measured pIC50 goes with C[C@]12CC[C@H]3[C@@H](CNC4=CC(=O)CC[C@@]43C)[C@@H]1CC[C@@H]2C(=O)NC(c1ccc(F)cc1)c1cccs1 (some centres unmarked) ?
Out: > 8.00

In: pIC50 for `C[C@]12CC[C@H]3[C@@H](CNC4=CC(=O)CC[C@@]43C)[C@@H]1CC[C@@H]2C(=O)Nc1ccccc1Br` ?
Out: 7.00 to 8.00

In: Need pIC50, item CC(NC(=O)[C@H]1CC[C@H]2[C@@H]3CNC4=CC(=O)CC[C@]4(C)[C@H]3CC[C@]12C)c1ccccc1 (some centres unmarked)
Out: > 8.00

In: So what's the measured pIC50 for this one? `Cc1cc(Br)cc(C)c1NC(=O)[C@H]1CC[C@H]2[C@@H]3CNC4=CC(=O)CC[C@]4(C)[C@H]3CC[C@]12C`
Out: > 8.00

In: Item under review: `C[C@]12CC[C@H]3[C@@H](CNC4=CC(=O)CC[C@@]43C)[C@@H]1CC[C@@H]2C(=O)Nc1cccc2c1Cc1ccccc1-2` . Reported pIC50?
Out: > 8.00

In: What value of measured pIC50 is listed for `C[C@]12CC[C@H]3[C@@H](CNC4=CC(=O)CC[C@@]43C)[C@@H]1CC[C@@H]2C(=O)Nc1ccccc1-c1ccccc1` ?
Out: > 8.00

In: Record request: pIC50 value, item `C[C@]12CC[C@H]3[C@@H](CNC4=CC(=O)CC[C@@]43C)[C@@H]1CC[C@@H]2C(=O)NC(c1ccc(Cl)cc1)c1ccc(Cl)cc1`
Out: > 8.00

In: Please give the measured pIC50 for this molecule: `C[C@]12CC[C@H]3[C@@H](CNC4=CC(=O)CC[C@@]43C)[C@@H]1CC[C@@H]2C(=O)NC(C1CCCCC1)C1CCCCC1`
Out: > 8.00

In: Suppose we examine the molecule CC(Cc1ccccc1)NC(=O)C1CCC2C3CNC4=CC(=O)CCC4(C)C3CCC12C (centres unmarked) ; what pIC50 value has been reported?
Out: > 8.00
